Overview of recorded IC50 for various compounds
Molecular target: surface displayed CK2α + CK2β (CK2α containing human CK2 holoenzyme) (Homo sapiens)
Construct: surface-display (autodisplay) carrier protein; made in house; host or cells: Escherichia coli BL21 (DE3), enzyme left on the cell surface
Sequence (P68400 whole entry): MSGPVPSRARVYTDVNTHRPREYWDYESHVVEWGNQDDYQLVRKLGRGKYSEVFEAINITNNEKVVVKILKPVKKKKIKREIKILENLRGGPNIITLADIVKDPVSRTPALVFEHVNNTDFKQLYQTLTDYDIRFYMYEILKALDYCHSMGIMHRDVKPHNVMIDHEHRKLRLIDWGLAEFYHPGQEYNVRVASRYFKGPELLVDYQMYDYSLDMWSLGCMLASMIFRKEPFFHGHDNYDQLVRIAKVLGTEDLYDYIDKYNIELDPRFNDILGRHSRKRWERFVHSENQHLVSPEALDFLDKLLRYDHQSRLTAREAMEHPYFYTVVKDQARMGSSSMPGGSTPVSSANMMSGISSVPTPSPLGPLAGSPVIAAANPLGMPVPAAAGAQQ
Sequence (P67870 whole entry partner): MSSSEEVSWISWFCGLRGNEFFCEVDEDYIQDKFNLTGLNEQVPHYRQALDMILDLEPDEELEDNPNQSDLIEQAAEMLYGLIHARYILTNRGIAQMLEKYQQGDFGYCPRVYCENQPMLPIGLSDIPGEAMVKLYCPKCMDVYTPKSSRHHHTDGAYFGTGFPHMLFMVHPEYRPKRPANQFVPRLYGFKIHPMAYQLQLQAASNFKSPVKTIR
Test: whole-cell CK2 selectivity assay, holoenzyme surface displayed on E. coli
Assay type: biochemical
Conditions: 600 µM ATP, 100 µM substrate peptide
Just the number in nM, nothing appended.

Consider the reported IC50 for these compounds:
Smiles Str: Cc1ccc(NC=C2C(=O)CCc3c2oc2c(Cl)c(Cl)c(O)cc32)cc1
Observable: IC50
Experimental Value: 877
//
Smiles Str: COc1ccc(N/C=C2\C(=O)CCc3c2oc2cc(Cl)c(O)c(Cl)c32)cc1
Observable: IC50
Experimental Value: 62

// next item, IC50 requested
Ask: Give a short answer stating reported IC50 for COc1ccc(/N=C/c2c(O)ccc3c2oc2cc(Cl)c(O)c(Cl)c23)cc1 .
Reply: 98
